Field: rep 1 no phene. Provide a value for each of the molecules that follow.
Test system: Pristionchus pacificus
Assay: Pristionchus pacificus motor disruption dose-response on solid media, 1 h
Conditions: conc 60; count of 20 animals per trial, one hour
Lab note: record just the number, no unit beside it.

Request: # query: rep 1 no phene of entry FC(F)(F)c1cccc(N2CCN(CC3CCCC3)CC2)c1
Response: 16

Request: Given the entry CC1CCC(N2CCN(c3ccc(F)cc3)CC2)CC1 (stereo not shown) , report its measured rep 1 no phene.
Response: 0

Request: Data request, read-out rep 1 no phene, for O=[N+]([O-])c1ccc(N2CCN(CC3CCCCC3)CC2)cc1
Response: 0

Request: Given the molecule Clc1ccc(N2CCN(CC3CC4C=CC3C4)CC2)cc1 (stereo not shown) , what is its reported rep 1 no phene?
Response: 0

Request: Fill in the blank: the reported rep 1 no phene of O=[N+]([O-])c1ccc(N2CCN(C3CCCCC3)CC2)cc1 is ____.
Response: 0

Request: So what does the record say about rep 1 no phene for CC1CCC(N2CCN(c3ccc(Cl)cc3)CC2)C1 (stereo not shown) ?
Response: 0

Request: Need rep 1 no phene, item CC1CCC(N2CCN(c3ccccc3)CC2)CC1 (stereo not shown)
Response: 0

Request: Fill in the blank: the reported rep 1 no phene of FC(F)(F)c1cccc(N2CCN(CC3CCCCC3)CC2)c1 is ____.
Response: 18

Request: For the molecule shown here, c1cc(N2CCN(CC3CCC3)CC2)ccn1 , give the reported rep 1 no phene.
Response: 20

Request: # query: rep 1 no phene of entry Fc1ccccc1N1CCN(C2CCCCCC2)CC1
Response: 2
